# TARGET_SYSTEM: T1, recombinant human SOST (rhSOST) (human, UniProt Q9BQB4 24-213)
# T1 construct: Treated as one molecule; also called recombinant human SOST protein; human sclerostin
# T1 sequence: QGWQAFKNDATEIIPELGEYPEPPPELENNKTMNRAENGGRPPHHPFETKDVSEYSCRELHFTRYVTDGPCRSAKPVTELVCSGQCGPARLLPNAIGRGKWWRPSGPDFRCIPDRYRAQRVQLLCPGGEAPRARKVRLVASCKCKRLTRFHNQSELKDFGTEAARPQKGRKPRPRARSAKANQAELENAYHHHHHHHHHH
# EXPERIMENT_NOTES: SPR Biacore T200, IgG captured via anti-human Fc, rhSOST analyte, 37 C
MEASURE_NAME: Kd (nM)
Please respond with the number in nM and leave the unit unwritten.

Short answer for DM29 (antibody, V domains shown, also called mH10/mL2) VH: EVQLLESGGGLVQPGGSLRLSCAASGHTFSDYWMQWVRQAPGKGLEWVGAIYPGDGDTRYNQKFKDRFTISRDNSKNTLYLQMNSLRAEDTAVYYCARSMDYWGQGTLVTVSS VL: DIVMTQSPDSLAVSLGERATINCRASKTVDSYGNSFMHWFQQKPGQPPKLLIYHSSNLESGVPDRFSGSGSGTDFTLTISSLQAEDVAVYYCLQTIEDPYTFGQGTKLEIK : Kd was 0.014

These data points were gathered from patent WO2015087187A1.
